Each entry below carries its reported Emax.
# TARGET UNDER TEST: Human recombinant PDE10A (hPDE10A) (Homo sapiens)
# Construct: His tag (inferred from metal chelate purification); made in house; host or cells: Sf9 insect cells (baculovirus)
# Sequence (Q9Y233 267-1055): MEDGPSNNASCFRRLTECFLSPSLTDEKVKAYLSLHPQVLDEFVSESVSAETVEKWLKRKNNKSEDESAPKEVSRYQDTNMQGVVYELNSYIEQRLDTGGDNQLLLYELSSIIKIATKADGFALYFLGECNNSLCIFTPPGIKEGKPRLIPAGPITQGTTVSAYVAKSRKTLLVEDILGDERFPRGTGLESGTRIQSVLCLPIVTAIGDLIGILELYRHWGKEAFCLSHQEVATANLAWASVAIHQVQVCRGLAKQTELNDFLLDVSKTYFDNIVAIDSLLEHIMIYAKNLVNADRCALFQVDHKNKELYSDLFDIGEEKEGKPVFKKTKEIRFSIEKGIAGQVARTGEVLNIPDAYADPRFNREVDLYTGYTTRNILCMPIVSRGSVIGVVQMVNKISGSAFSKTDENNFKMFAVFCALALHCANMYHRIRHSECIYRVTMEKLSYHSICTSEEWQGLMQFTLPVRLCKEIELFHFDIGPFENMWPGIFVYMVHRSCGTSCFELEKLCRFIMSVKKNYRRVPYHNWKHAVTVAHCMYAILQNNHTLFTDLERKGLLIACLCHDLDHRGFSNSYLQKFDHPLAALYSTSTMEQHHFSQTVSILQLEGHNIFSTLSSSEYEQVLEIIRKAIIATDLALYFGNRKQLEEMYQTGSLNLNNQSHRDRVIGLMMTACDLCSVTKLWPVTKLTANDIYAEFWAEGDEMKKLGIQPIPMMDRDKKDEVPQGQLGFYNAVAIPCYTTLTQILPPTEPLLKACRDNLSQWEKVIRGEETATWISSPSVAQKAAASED
# PROCEDURE TEXT: In vitro assay PDE10A, human clone (SPA, 3H-cAMP hydrolysis)
# Format: biochemical
# MEASUREMENT SETUP: human clone (h), default; read-out: hPDE10A2 Emax
The reply should be a number in %, with the unit left off.

C[C@@H]1CCN(C(=O)c2ccno2)C[C@H]1c1cc(C(F)F)nc2ncnn12
70
C[C@@H]1CCN(C(=O)c2cocn2)C[C@H]1c1cc(C(F)F)nc2ncnn12
69
COc1c(C(=O)N2CC[C@@H](C)[C@H](c3cc(C(F)F)nc4ncnn34)C2)cccc1C(F)(F)F
77
C[C@@H]1CCN(C(=O)c2ccc(F)c(C(F)F)c2)C[C@H]1c1cc(C(F)F)nc2ncnn12
97
C[C@@H]1CCN(C(=O)c2cccnc2N)C[C@H]1c1cc(C(F)F)nc2ncnn12
72

Request: Sample `Cc1cc([C@@H]2CN(C(=O)c3cc(Cl)ncc3C)CC[C@H]2C)n2ncnc2n1` — what was its Emax?
Result: 97

Request: Sample `C[C@@H]1CCN(C(=O)c2ccc(Cl)c(OC(F)F)c2)C[C@H]1c1cc(C(F)F)nc2ncnn12` — what was its Emax?
Result: 96

---

# TARGET UNDER TEST: PDE2A (Rattus norvegicus)
# Construct: Twenty μm-thick striatal sections were cut; from tissue; host or cells: rat brain, striatal sections
# Sequence (Q01062 1-928): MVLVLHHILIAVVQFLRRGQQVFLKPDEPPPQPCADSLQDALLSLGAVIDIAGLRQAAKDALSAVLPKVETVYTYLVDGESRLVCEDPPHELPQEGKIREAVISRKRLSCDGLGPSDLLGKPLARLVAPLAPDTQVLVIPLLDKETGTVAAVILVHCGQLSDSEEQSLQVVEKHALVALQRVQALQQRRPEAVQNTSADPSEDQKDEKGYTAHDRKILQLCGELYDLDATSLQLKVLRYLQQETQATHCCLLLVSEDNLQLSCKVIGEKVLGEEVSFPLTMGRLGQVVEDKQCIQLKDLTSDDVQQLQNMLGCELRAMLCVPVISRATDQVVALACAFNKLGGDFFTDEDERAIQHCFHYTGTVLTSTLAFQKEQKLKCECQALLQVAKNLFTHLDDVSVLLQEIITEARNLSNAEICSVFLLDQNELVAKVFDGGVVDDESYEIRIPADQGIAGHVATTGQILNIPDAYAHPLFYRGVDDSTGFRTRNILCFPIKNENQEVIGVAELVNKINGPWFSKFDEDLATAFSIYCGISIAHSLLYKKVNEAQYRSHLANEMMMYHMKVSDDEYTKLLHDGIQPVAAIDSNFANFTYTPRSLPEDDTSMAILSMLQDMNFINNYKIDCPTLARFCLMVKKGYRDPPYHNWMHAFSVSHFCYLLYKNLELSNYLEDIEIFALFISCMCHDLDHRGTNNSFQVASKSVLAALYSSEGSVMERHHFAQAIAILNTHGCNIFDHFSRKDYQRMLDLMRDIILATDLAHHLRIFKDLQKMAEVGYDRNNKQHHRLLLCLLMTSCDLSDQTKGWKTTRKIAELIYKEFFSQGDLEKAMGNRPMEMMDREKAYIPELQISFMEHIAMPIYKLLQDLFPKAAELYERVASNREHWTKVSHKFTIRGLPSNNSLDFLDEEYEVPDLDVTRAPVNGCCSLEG
# PROCEDURE TEXT: PDE2 occupancy by test compounds, ex-vivo autoradiography with [3H]B-17a
# Format: in vivo, Male Wistar rats
# MEASUREMENT SETUP: 10 mg/kg, route PO (oral), percentage receptor occupancy, ex-vivo autoradiography, striatum
Each entry below carries its reported receptor occupancy at 10 mg/kg.
The reply should be a number in %, with the unit left off.

Please review the following examples before continuing.
Cn1cc(C(=O)N2[C@H]3CC[C@H](c4cc(C(F)F)nc5ncnn45)[C@@H]2CC3)c2ccccc21
-2
COc1ccc(C(=O)N2[C@H]3CC[C@H](c4cc(C(F)F)nc5ncnn45)[C@@H]2CC3)cc1OC
-5

Request: Sample `COc1cc(C(=O)N2[C@H]3CC[C@H](c4cc(C(F)F)nc5ncnn45)[C@@H]2CC3)cc(OC)n1` — what was its receptor occupancy at 10 mg/kg?
Result: -7

---

# TARGET UNDER TEST: Human recombinant PDE2A (hPDE2A) (Homo sapiens)
# Construct: His tag (inferred from metal chelate purification); made in house; host or cells: Sf9 insect cells (baculovirus)
# Sequence (O00408 whole entry): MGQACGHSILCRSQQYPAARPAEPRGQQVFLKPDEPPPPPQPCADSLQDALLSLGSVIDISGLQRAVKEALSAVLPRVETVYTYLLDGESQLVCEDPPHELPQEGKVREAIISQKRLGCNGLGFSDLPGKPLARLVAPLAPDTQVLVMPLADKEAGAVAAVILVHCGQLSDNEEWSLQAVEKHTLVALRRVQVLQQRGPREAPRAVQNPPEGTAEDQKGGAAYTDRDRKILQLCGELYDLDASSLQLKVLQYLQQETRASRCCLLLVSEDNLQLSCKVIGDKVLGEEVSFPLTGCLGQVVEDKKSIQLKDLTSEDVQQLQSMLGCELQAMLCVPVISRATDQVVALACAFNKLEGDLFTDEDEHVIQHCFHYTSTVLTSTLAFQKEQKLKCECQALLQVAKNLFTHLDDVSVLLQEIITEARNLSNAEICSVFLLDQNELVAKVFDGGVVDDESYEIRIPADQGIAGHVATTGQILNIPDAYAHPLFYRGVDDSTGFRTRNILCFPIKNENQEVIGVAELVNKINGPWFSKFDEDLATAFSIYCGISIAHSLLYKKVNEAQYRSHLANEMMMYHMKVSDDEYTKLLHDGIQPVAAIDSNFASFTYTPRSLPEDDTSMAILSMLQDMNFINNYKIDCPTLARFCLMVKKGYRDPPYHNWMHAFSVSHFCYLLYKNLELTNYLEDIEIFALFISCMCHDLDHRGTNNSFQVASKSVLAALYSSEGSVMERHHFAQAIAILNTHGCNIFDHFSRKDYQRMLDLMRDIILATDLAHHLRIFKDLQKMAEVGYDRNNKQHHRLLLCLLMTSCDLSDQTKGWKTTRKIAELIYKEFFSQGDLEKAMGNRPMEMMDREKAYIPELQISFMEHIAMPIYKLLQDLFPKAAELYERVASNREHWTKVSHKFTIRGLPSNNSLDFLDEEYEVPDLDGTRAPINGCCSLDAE
# PROCEDURE TEXT: In vitro assay PDE2A (SPA, 3H-cGMP hydrolysis)
# Assay type: biochemical
# MEASUREMENT SETUP: read-out: hPDE2A Emax
Each entry below carries its reported Emax.
Give me the value, and tack the unit on after it.

Please review the following examples before continuing.
COc1ccc2c(c1)cc(C(=O)N1CC[C@@H](C)[C@H](c3cc(C(F)F)nc4ncnn34)C1)n2C
101%
COc1ccc(C(=O)N2CC[C@@H](C)[C@H](c3cc(C(F)F)nc4ncnn34)C2)nc1
99%

Request: State its Emax on Human recombinant PDE2A (hPDE2A) (Homo sapiens): `Cc1cc([C@@H]2CN(C(=O)c3cc(C4CC4)ncc3C(F)(F)F)CC[C@H]2C)n2ncnc2n1`
Result: 100%

---

Each entry below carries its reported receptor occupancy at 10 mg/kg.
# TARGET UNDER TEST: PDE2A (Rattus norvegicus, UniProt Q01062)
# Construct: Twenty μm-thick striatal sections were cut; from tissue; host or cells: rat brain, striatal sections
# Sequence (Q01062 1-928): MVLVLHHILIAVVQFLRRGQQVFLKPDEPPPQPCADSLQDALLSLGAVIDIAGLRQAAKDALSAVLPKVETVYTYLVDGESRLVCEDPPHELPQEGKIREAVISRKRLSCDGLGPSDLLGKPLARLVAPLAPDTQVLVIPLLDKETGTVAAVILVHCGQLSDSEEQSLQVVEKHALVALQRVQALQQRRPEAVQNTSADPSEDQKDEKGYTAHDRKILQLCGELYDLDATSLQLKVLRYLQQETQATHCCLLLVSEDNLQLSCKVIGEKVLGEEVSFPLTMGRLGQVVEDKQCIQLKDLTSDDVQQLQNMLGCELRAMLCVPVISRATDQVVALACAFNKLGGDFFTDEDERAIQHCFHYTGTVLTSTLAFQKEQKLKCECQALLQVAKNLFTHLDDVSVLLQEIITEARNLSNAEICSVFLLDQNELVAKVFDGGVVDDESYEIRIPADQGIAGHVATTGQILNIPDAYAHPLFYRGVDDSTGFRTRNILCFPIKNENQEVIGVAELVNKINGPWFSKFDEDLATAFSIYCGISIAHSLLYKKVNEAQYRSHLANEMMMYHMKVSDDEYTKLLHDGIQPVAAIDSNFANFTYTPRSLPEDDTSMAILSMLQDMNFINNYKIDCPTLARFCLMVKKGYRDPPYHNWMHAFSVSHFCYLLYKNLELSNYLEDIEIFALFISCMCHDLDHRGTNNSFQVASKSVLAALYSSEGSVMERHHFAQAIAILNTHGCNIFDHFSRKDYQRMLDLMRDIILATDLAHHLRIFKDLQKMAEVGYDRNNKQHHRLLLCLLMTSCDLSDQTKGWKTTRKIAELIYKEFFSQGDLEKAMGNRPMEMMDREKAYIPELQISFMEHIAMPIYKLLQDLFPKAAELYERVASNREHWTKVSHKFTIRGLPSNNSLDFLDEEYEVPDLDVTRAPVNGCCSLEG
# PROCEDURE TEXT: PDE2 occupancy by test compounds, ex-vivo autoradiography with [3H]B-17a
# Assay type: in vivo, Male Wistar rats
# MEASUREMENT SETUP: sc, 10 mg/kg, route SC (subcutaneous), percentage receptor occupancy, ex-vivo autoradiography, striatum
The reply should be a number in %, with the unit left off.

Please review the following examples before continuing.
Cc1cc(C(=O)N2CC[C@@H](C)[C@H](c3cc(C(F)F)nc4ncnn34)C2)cnc1C [Compound 49]
12
Cc1cc(C(=O)N2CC[C@@H](C)[C@H](c3cc(C(F)F)nc4ncnn34)C2)c(F)c(C)n1 [Compound 70]
65
C[C@@H]1CCN(C(=O)c2ccn3cccc3c2)C[C@H]1c1cc(C(F)F)nc2ncnn12 [Compound 90]
73
Cc1cc(C(=O)N2CC[C@@H](C)[C@H](c3cc(C(F)F)nc4ncnn34)C2)cc(C(C)C)n1 [Compound 101]
43
C[C@@H]1CCN(C(=O)c2ccc3c(ccn3CCF)c2)C[C@H]1c1cc(C(F)F)nc2ncnn12 [Compound 89]
88
Cc1nc2cc(C(=O)N3CC[C@@H](C)[C@H](c4cc(C(F)F)nc5ncnn45)C3)ccc2o1 [Compound 188]
2

We now examine a further molecule.
Request: Sample CCc1cc(C(=O)N2CC[C@@H](C)[C@H](c3cc(C(F)F)nc4ncnn34)C2)cc(C)n1 [Compound 80] — what was its receptor occupancy at 10 mg/kg?
Result: 52
